# System: SR
# procedureSummary: NCI tumour cell line growth inhibition, 48 h
The source made the active and inactive calls. Cut-off read from the data, not from the text of the source: active = GI50 up to about 1.1 µM and inactive = higher.
In this exercise, the only acceptable responses are True (active), False (inactive)

Request: Hi, do you know how O=C(CCC(=O)c1ccsc1)c1ccsc1 came out in this test?
Response: False

Request: What call does the record list for C=CCOC1=C(OCC=C)C(C2COC(C)(C)O2)OC1=O (configuration not stated) ?
Response: False

Request: Record request — test call for CC(C)=C1CCC(CN2CCOCC2)C1=O (configuration not stated)
Response: False

Request: Record request — test call for COc1ccc(C(=O)Cn2c(C(C)=O)nc3ccccc32)cc1
Response: False

Request: Please let me know the test result on file for COc1ccc(C(O)c2ccc3c(c2)OCO3)cc1 (configuration not stated) .
Response: False

Request: Hello, I am checking results. What call was entered for NC1CC(N)c2c(Br)sc(Br)c21 (configuration not stated) ?
Response: False

Request: Record request — test call for COc1ccc(C(=O)c2sc(Nc3ccccc3)nc2N)cc1
Response: True

Request: Any idea what this test logged for O=[N+]([O-])c1ccc(S(=O)(=O)n2c3ccc(Br)cc3c3nc4ccccc4nc32)cc1 ?
Response: False

Request: Dear all, I need the recorded test outcome for O=C(N/N=C/c1ccc2c(c1)CCC2)c1ccccc1O , thank you.
Response: False

Request: Entry C=C1CC2CC(O)CC(C1)C2 (configuration not stated) : call = ?
Response: False

Request: Outcome? Clc1nc(Cl)nc(Nc2cccc3ccccc23)n1
Response: False

Request: // outcome(item) with item = C=C1CC2(CC(c3ccccc3OC)OC(c3ccccc3OC)C2)OC1=O (configuration not stated)
Response: False

====

# System: SK-OV-3
# procedureSummary: NCI tumour cell line growth inhibition, 48 h
The source made the active and inactive calls. Cut-off read from the data, not from the text of the source: active = GI50 up to about 1.1 µM and inactive = higher.
observationType: GI50

Request: Give the reported GI50 for CC(NCCS(=O)(=O)O)C(=O)O (centres undefined) (system: SK-OV-3).
Response: > 100 µM (inactive)

Request: Test system SK-OV-3; read-out GI50; what value for CC1OC(OC2C(O[C@@H]3C[C@@H]4CC[C@@H]5[C@H](CC[C@]6(C)C7C(C[C@@H]56)O[C@]5(CC[C@@H](C)CO5)[C@H]7C)[C@@]4(C)C[C@H]3O)OC(CO)C(O)C2O)C(O)C(O)C1O (some centres undefined) ?
Response: 1.89 µM (inactive)

Request: Notebook entry, SK-OV-3 assay: GI50 of O=C(O)CNC(=O)c1c2ccccc2nc2ccccc12 = ?
Response: > 100 µM (inactive)

Request: Please provide the recorded GI50 for CCN1CC2=C(NC(=S)NC2c2ccc(Cl)cc2)/C(=C/c2ccc(Cl)cc2)C1 (centres undefined) , tested on SK-OV-3.
Response: > 100 µM (inactive)

====

# Test system: HOP-62
# procedureSummary: NCI tumour cell line growth inhibition, 48 h
Activity calls are given as the source filed them. No stated cut-off is given here; in the data, active = GI50 up to about 1.1 µM and inactive = higher.
Field 'call' accepts true (1) for active, false (0) for inactive

Request: What did the test return for Cc1cccc2nc3c(C(=O)NCCN(C)C)cccc3cc12 ?
Response: false (0)

Request: Write down the call the test reported for this molecule. Item: O=C1N/C(=N/N=C\C(O)C(O)C(O)C(O)CO)N/C1=C\c1ccc(Cl)cc1 (stereo not drawn)
Response: false (0)

Request: What did this assay record as the result for Cc1cc(Cl)ccc1NC1=NC(=O)C(CC(=O)Nc2cccc(Cl)c2)S1 (stereo not drawn) ?
Response: false (0)

Request: Outcome logged for CCCCn1c(C)c(C)c2c1NN=C(C#N)S2(=O)=O in this assay:
Response: false (0)

Request: Called result for O=C(O)[C@@H]1C2CC([C@@H]1C(=O)O)[C@H](N1C(=O)CCC1=O)[C@@H]2Br (stereo partly drawn)
Response: false (0)

Request: Identify the outcome logged in this assay for the molecule shown: CN1C(=O)C(CCO)(C(C)(C)C)c2ccccc21 (stereo not drawn)
Response: false (0)

Request: What was the test verdict on O=C1NCN(c2ccccc2)C12CCN(CCCN1CCN(CCOC(c3ccc(F)cc3)c3ccc(F)cc3)CC1)CC2 ?
Response: false (0)

Request: Tell me the recorded outcome of this test for COC(=O)c1c(O)ccc2c1c1c(n2Cc2cccc(C)c2)C(=O)c2ccccc2C1 .
Response: false (0)

Request: How did this test come out for COc1c2occc2c(OC)c2c(=O)c(S(=O)(=O)NC(=O)Nc3ccc(Cl)cc3)coc12 ?
Response: false (0)

Request: In this assay, the call recorded for COc1ccc(C2Oc3c(cc(O)c(OC)c3C)[C@@H]2C)cc1OC (stereo partly drawn) was what?
Response: false (0)

Request: Which result was noted for this molecule in the test: OC1(c2ccccc2)C2CCN(CC2)C1CN1CCOCC1 (stereo not drawn)
Response: false (0)

Request: Please state the recorded outcome for this molecule: COC(=O)C1=C(C(=O)OC)SC2(S1)C(C(=O)OC)=C(C(=O)OC)Sc1c2ssc1=O
Response: false (0)

Request: Which outcome was assigned to OCCCCOC(c1ccccc1)(c1ccccc1)c1ccccc1 in this test?
Response: false (0)

Request: Any idea what this test logged for Cc1cc(O)c2c(c1)C(=O)C(c1c(C)cc3c(c1O)C(=O)C1OC1C3=O)=CC2=O (stereo not drawn) ?
Response: false (0)

Request: Query: recorded result category for O=C1NCN(c2ccccc2)C12CCN(CCCSc1ccc(F)cc1)CC2 in this test
Response: false (0)

Request: Which outcome was assigned to O=C(Nc1nnn[nH]1)c1nc(O)cc(-c2ccccc2)n1 in this test?
Response: false (0)

Request: Look up the recorded call for N#Cc1[nH]c(=O)n(-c2ccc(Cl)cc2)c1N in this test.
Response: false (0)

Request: Recorded call for O=C1Nc2ccccc2C(=O)/C1=C/NC(=S)NCc1ccccc1 ?
Response: false (0)

Request: Please share the test call associated with O=C(/C=C/c1cccs1)c1ccc(Cl)s1 .
Response: false (0)

Request: What classification did COCOc1cc(OC)ccc1C/C(=N/O)C(=O)OC end up with in this test?
Response: false (0)

Request: For CCCCOC(=O)NC(Nc1ccc(S(=O)(=O)Nc2ccc(OC)nn2)cc1)(C(F)(F)F)C(F)(F)F , what call appears in the results of this test?
Response: false (0)

Request: Hi team, can someone confirm the assay call for COc1cc(OC)c(C2c3cc4c(cc3OC(N3CCOCC3)C2C)OCO4)c(OC)c1 (stereo not drawn) ?
Response: false (0)

Request: Tell me the recorded outcome of this test for C=CCOC1=C(OCC=C)C(C2COC(C)(C)O2)OC1=O (stereo not drawn) .
Response: false (0)

Request: Which outcome did this test record for the molecule COc1ccc2c(c1)C1(C=N2)CCN(C(C)=O)CC1 ?
Response: false (0)

Request: Dear all, I need the recorded test outcome for COC(=O)CNC(=O)CCC(C)[C@H]1CCC2C3C(C[C@H](OC(C)=O)[C@@]21C)[C@@]1(C)CCC2(C[C@H]1C[C@H]3OC(C)=O)OOC1(CCCCC1)OO2 (stereo partly drawn) , thank you.
Response: true (1)

Request: Which outcome did this test record for the molecule CC1(C)CCCCCC(O)C(O)CCC(C)(C)C1=O (stereo not drawn) ?
Response: false (0)

Request: For N#CC1=C(N)N2C(=O)/C(=C/c3ccccc3)SC2C(c2nc3ccccc3[nH]2)=C1c1ccccc1 (stereo not drawn) , which call appears in the assay record?
Response: false (0)

Request: # outcome recorded in this test, key = CC(=O)O[C@H]1C(=O)[C@@]2(C)[C@H]([C@H](OC(=O)c3ccccc3)[C@]3(O)C[C@H](OC(=O)[C@H](O)[C@@H](NC(=O)c4ccccc4)c4ccccc4)C(C)=C1C3(C)C)[C@]1(OC(C)=O)CO[C@@H]1C[C@@H]2O
Response: true (1)

Request: Outcome? C=C1[C@@H]2CCC3[C@]4(C)C(CC[C@@]5(C)C(=O)O[C@H](O)[C@@H]45)[C@H](O)[C@]3(C2)[C@H]1OC1OC(CO)C(O)C(O)C1O (stereo partly drawn)
Response: false (0)

Request: Fill in: this test's call for CC(C)c1ccc(/C(C(=O)O)=C(\O)C(=O)O)cc1 is ___
Response: false (0)

Request: # fetch the recorded call for COc1cc2c(c(OC)c1OC)-c1ccc(SC)c(=O)cc1C(NC(=O)c1ccccc1)CC2 (stereo not drawn) here
Response: true (1)

Request: // return assay outcome for c1ccc(N/N=N/c2ccc(-c3nc4ccccc4o3)cc2)nc1
Response: false (0)

Request: What classification did COC1C(OC(C)=O)CC(=O)OC(C)C/C=C/C=C\C(O)C(C)CC(CC=O)C1OC1OC(C)C(OC2CC(C)(O)C(OC(=O)CC(C)C)C(C)O2)C(N(C)C)C1O (stereo not drawn) end up with in this test?
Response: false (0)

Request: For this molecule, state the assay outcome: COc1cc(C(=O)N(C(=O)N2CCCCC2)c2ccccc2)cc(OC)c1OC
Response: false (0)

Request: Lab log entry: O=C(/C=C1\Sc2ccccc2N=C1CC(=O)c1ccccc1)c1ccccc1 — outcome as called in the assay?
Response: false (0)

Request: Test call for this molecule, please: O=C(NC12CC3CC(CC(C3)C1)C2)C(=O)c1c[nH]c2ccc([N+](=O)[O-])cc12
Response: false (0)

Request: Given O=C1C(Br)=C(C2=CC(=P(c3ccccc3)(c3ccccc3)c3ccccc3)C=C2)C(=O)C(Br)=C1C1=CC(=P(c2ccccc2)(c2ccccc2)c2ccccc2)C=C1 , state the outcome it received in this test.
Response: false (0)

Request: Tell me the assay call for Cc1nc(-c2nc(C)c(C(=O)NN(C)C)s2)sc1C(=O)NN(C)C please.
Response: false (0)

This collection of values is drawn from ChEMBL document CHEMBL1201862.
